Cited source: patent EP1803452A1

- experimental_protocol: Metabolic stability test in plasma
- Assay type: in vitro ADME, human
- conditions: unchanged form after 10 minutes at 37°C in human plasma, LC/MS; read-out: Remaining rate in human plasma (%/10min)
endpoint: remaining at 10 min (%)

(A) COc1ccc(COC(=O)c2ccc(OC(=O)CCCc3ccc(NC(=O)c4ccccc4-c4ccc(C(F)(F)F)cc4)c(C(=O)N(C)C)c3)cc2)cc1
(B) CN(C)C(=O)c1cc(CCCC(=O)Oc2ccc(C(=O)OCc3cccnc3)cc2)ccc1NC(=O)c1ccccc1-c1ccc(C(F)(F)F)cc1
(C) CN(C)C(=O)c1cc(CCCC(=O)Oc2ccc(C(=O)OC3CCc4ccccc43)cc2)ccc1NC(=O)c1ccccc1-c1ccc(C(F)(F)F)cc1 (stereo not drawn)
q: Arrange the items listed above so that remaining at 10 min rises from first to last. To answer, write out the labels according to the requested order.
a: A, B, C
(A: 0%, B: 39%, C: 63%)
